pIC50: −log10 of the molar value.
Here's a roundup of pIC50 values tested on UniProt P06239, taken from various published works.
Sequence (P06239 whole entry): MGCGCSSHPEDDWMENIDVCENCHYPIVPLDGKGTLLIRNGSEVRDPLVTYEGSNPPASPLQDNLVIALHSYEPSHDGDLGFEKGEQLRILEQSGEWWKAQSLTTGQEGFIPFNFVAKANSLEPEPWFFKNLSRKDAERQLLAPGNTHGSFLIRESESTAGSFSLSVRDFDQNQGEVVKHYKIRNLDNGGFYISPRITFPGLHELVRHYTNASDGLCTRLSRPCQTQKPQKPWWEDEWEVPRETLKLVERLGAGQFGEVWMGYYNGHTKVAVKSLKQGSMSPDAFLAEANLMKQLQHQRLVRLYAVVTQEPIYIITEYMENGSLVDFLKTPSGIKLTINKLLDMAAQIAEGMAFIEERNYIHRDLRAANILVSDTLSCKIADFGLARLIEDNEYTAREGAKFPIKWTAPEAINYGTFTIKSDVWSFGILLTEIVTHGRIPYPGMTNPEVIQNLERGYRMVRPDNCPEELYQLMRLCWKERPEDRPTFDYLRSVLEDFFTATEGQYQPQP

Oc1ccc(O)c(/C=N/Nc2ccccc2)c1 = < 2.46
COc1cc(Nc2nc(NCc3cccc(NC(=O)CCl)c3)n3ccnc3c2C(N)=O)cc(OC)c1 = < 6.00

For UniProt P06239, provide pIC50 of CN(C)CC1CCn2c(c(C3=C(c4cn(C)c5ccccc45)C(=O)NC3=O)c3ccccc32)C1.Cl (stereo not drawn) please.
< 4.00
